# ASSAY SYSTEM: Human plasma kallikrein (Homo sapiens (Human), UniProt P03952)
# Sequence (P03952 391-638): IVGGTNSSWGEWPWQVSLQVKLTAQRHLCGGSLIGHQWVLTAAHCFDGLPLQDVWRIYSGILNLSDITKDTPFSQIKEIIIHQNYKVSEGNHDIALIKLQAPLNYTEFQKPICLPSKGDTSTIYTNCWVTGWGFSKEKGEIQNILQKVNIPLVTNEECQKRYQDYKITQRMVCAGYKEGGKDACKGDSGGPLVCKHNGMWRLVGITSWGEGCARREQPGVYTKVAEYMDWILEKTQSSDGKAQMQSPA
# Sequence (P03952 20-390 partner): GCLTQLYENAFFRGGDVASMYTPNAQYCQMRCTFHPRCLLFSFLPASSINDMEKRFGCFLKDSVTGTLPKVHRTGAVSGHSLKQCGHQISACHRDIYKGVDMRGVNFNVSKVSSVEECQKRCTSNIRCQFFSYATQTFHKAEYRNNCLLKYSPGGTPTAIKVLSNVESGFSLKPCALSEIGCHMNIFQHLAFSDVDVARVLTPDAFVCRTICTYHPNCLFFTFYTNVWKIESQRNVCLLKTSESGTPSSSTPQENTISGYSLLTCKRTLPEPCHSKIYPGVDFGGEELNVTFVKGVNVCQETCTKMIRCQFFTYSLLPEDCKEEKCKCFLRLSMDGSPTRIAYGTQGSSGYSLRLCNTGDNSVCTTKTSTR
# ASSAY NAME: Determination of the IC50 for plasma kallikrein (fluorogenic substrate H-DPro-Phe-Arg-AFC)
# CONDITIONS: 37° C., read-out: IC50 (human PKaI)
pIC50: −log10 of the molar value.
Quick rule: pIC50 of at least 8 means t, below that means f.

{"ITEM SMILES": "Cc1cnn(Cc2ccc(Cn3cc(C(=O)NCc4cccc5[nH]ccc45)c(C(F)(F)F)n3)cc2)c1", "GROUP LABEL": "f"}
{"ITEM SMILES": "Cc1cnn(Cc2ccc(Cn3cc(C(=O)NCc4ccc5c(N)nccc5c4)c(C(F)(F)F)n3)cc2)c1", "GROUP LABEL": "t"}

Quick check, pIC50 >= 8? `CC(C)Oc1cc(Cn2cc(C(=O)NCc3ccc4c(N)nccc4c3)c(C(F)(F)F)n2)ccn1`
f

Textbook exercise: given the entry `CCOc1ncc(Cn2cc(C(=O)NCc3ccc4c(N)nccc4c3)c(C3CC3)n2)cc1Cl` , state whether its pIC50 is greater than or equal to 8.
f

Is reported pIC50 greater than or equal to 8 here: `Nc1nccc2cc(CNC(=O)c3cn(Cc4csc(Cn5cccn5)n4)nc3C(F)(F)F)ccc12`
f

Determine whether this compound has pIC50 no lower than 8: `Cc1cnn(Cc2ccc(Cn3cc(C(=O)NCc4cnc5[nH]ccc5c4)nn3)cc2)c1`
f

In plain terms: is recorded pIC50 at least 8 for `Cc1cnn(Cc2ccc(Cn3cc(C(=O)NCc4ccc5c(N)nccc5c4)c(C(F)F)n3)cc2)c1` ?
t

Source listed as patent US9533987B2.
